Just for reference, ChEMBL document CHEMBL3217633 is where these values come from.

# diameter of the inhibition zone (DIZ) values compiled below
Tested on: Staphylococcus aureus
Test: Antimicrobial activity against methicillin-resistant Staphylococcus aureus ATCC 43300 at 1 mg/disc after 24 hrs by disc diffusion assay
Type: functional

substanceSmiles	experimentalTarget	unitTag	diameter of the inhibition zone (DIZ)
CC12CC[C@](C(=O)Nc3c(O)ccc(C(=O)O)c3O)(OC1=O)C2(C)C	Staphylococcus aureus	mm	38
CCCC(=O)Nc1c(O)ccc(C(=O)O)c1O	Staphylococcus aureus	mm	20
O=C(O)c1ccc(O)c(NC(=O)C23CC4CC(CC(C4)C2)C3)c1O	Staphylococcus aureus	mm	11
O=C(O)c1cccc(NC(=O)C23CC4CC(CC(C4)C2)C3)c1O	Staphylococcus aureus	mm	11
O=C(O)c1ccc(O)c(NC(=O)C2CCCC2)c1O	Staphylococcus aureus	mm	8
CC12CC[C@@](C(=O)Nc3c(O)ccc(C(=O)O)c3O)(OC1=O)C2(C)C	Staphylococcus aureus	mm	22
CC12CC[C@@](C(=O)Nc3cccc(C(=O)O)c3O)(OC1=O)C2(C)C	Staphylococcus aureus	mm	21
CCC1(C(=O)Nc2cccc(C(=O)O)c2O)CCCCC1	Staphylococcus aureus	mm	10
CCC1(C(=O)Nc2c(O)ccc(C(=O)O)c2O)CCCCC1	Staphylococcus aureus	mm	10
CC12CC[C@](C(=O)Nc3cccc(C(=O)O)c3O)(OC1=O)C2(C)C	Staphylococcus aureus	mm	14
